meta.source: the Immune Epitope Database (IEDB)

target: HLA-A*01:01; experiment: IEDB peptide-MHC binding, purified MHC/competitive/radioactivity; filed as Kd, often an IC50 or EC50 that approximates it; bounds were set here for any values at or beyond the usual limits of such assays; settings: source organism: Bos taurus
pKd: −log10 of the molar value.
observable: pKd

Annotate the sequence NRKLLDIA with its measured pKd.
≤ 4.30

* * *

target: HLA-A*03:01; assay: IEDB peptide-MHC binding, purified MHC/competitive/radioactivity; bounds were set here for any values at or beyond the usual limits of such assays; conditions: source organism: Homo sapiens
observable: IC50 (nM)
Numbers only, in nM.

# example entries with known answers
# sequence text, target or system, unit text, value observed
records = [
    ("SVLNLVIVK", "HLA-A*03:01", "nM", 128),
    ("RTQNVLGEK", "HLA-A*03:01", "nM", 155),
    ("KVVNPLFEK", "HLA-A*03:01", "nM", 85),
]

Kindly review the next sequence as well.
Annotate the sequence ASFDKAKLK with its measured IC50.
42
